Origin of measurements: patent US10206902B2

Assay: in vitro
Format: cell-based
Settings: African green monkey
value-kind: CC50 at 3 days (µM)
Reply with just the number (in µM).

Examples with their reported CC50 at 3 days follow.
compound	units-label	CC50 at 3 days
COc1cc(NC(C(=O)c2c[nH]c3c(C)c(F)ccc23)c2ccc(F)cc2OC)cc(OCCO)c1 (single isomer, unassigned)	µM	3.6
COc1cc(NC(C(=O)c2c[nH]c3c(F)cc(C)cc23)c2ccc(F)cc2OC)cc(OCCO)c1 (single isomer, unassigned) [Compound 12B]	µM	5
COc1cc(NC(C(=O)c2c[nH]c3c(C)c(Cl)ccc23)c2ccc(F)cc2OC)cc(OCCO)c1 (single isomer, unassigned)	µM	4.1

Now for the compound whose CC50 at 3 days we want.
Fill in the blank: the reported CC50 at 3 days of COc1cc(NC(C(=O)c2c[nH]c3c(C)c(OC)ccc23)c2ccc(F)cc2OC)cc(OCCO)c1 (single isomer, unassigned) [Compound 11A] is ____.
6.3

====

Measured pEC50 accompanies every entry in the list below.
System: DENV-2 16681 strain
Experiment: DENV-2 antiviral assay (eGFP-labelled virus in Vero cells)
Type: cell-based, Dengue virus
Details: Dengue virus, DENV2, Vero, 72 h, DENV-2 16681 eGFP, MOI 0.5, 3 days
Just the number, please; pEC50 means minus log10 of the concentration in mol/L.

Example cases with answers are listed next.
compound	pEC50
COc1cc(NC(C(=O)c2c[nH]c3c(Cl)c(OC)ccc23)c2ccc(F)cc2OC)cc(OCCO)c1 (racemic)	8.41
COc1cc(NC(C(=O)c2c[nH]c3c(C)c(OC)ccc23)c2ccc(F)cc2OC)cc(OCCO)c1 (racemic)	8.62
COc1cc(NC(C(=O)c2c[nH]c3cc(F)c(F)cc23)c2ccc(F)cc2OC)cc(OCCO)c1 (racemic)	8.17

Form field: reported pEC50 of COc1cc(NC(C(=O)c2c[nH]c3c(F)c(F)ccc23)c2ccc(F)cc2OC)cc(OCCO)c1 (racemic)
8.05

So what's the measured pEC50 for this one? COc1cc(NC(C(=O)c2c[nH]c3c(C)cc(F)cc23)c2ccc(F)cc2OC)cc(OCCO)c1 (racemic)
8.03

Reported pEC50 for COc1cc(NC(C(=O)c2c[nH]c3c(C)c(F)ccc23)c2ccc(F)cc2OC)cc(OCCO)c1 (racemic) : what is it?
8.27

I have this compound here, COc1cc(NC(C(=O)c2c[nH]c3c(C)c(Cl)ccc23)c2ccc(F)cc2OC)cc(OCCO)c1 (racemic) , and I need its recorded pEC50.
8.68

Name the recorded pEC50 for COc1cc(NC(C(=O)c2c[nH]c3cc(F)ccc23)c2ccc(F)cc2OC)cc(OCCO)c1 (racemic) .
8.10

Return reported pEC50; argument: COc1cc(NC(C(=O)c2c[nH]c3cc(OC)c(F)cc23)c2ccc(F)cc2OC)cc(OCCO)c1 (racemic)
7.85

====

Tested on: DENV-3 strain H87 prototype
Assay: Tetravalent RT-qPCR assay Protocol B, serotype 3
Format: cell-based
Details: Dengue virus, DENV3, 168 h, RT-qPCR serotype 3 H87, Vero cells, 7 days
value-kind: EC50 (nM)
Write down the numeric answer in nM and omit the unit.

In the examples that follow, each entry is paired with its recorded EC50.
molecule	EC50 / nM
COc1cc(NC(C(=O)c2c[nH]c3c(C)cc(F)cc23)c2ccc(F)cc2OC)cc(OCCO)c1 (single isomer, unassigned)	66
COc1cc(NC(C(=O)c2c[nH]c3cc(Cl)ccc23)c2ccc(F)cc2OC)cc(OCCO)c1 (single isomer, unassigned)	16

Which EC50 is listed for COc1cc(NC(C(=O)c2c[nH]c3c(C)c(Cl)ccc23)c2ccc(F)cc2OC)cc(OCCO)c1 (single isomer, unassigned) ?
32

Dear colleague, I am looking for the recorded EC50 of the following molecule: COc1cc(NC(C(=O)c2c[nH]c3cc(OC)c(F)cc23)c2ccc(F)cc2OC)cc(OCCO)c1 (single isomer, unassigned)
41

Value lookup for EC50; key = COc1cc(NC(C(=O)c2c[nH]c3c(C)c(F)ccc23)c2ccc(F)cc2OC)cc(OCCO)c1 (single isomer, unassigned)
42

Which EC50 value is on record for COc1cc(NC(C(=O)c2c[nH]c3cc(F)ccc23)c2ccc(F)cc2OC)cc(OCCO)c1 (single isomer, unassigned) ?
53

Look at this molecule and give its reported EC50. COc1cc(NC(C(=O)c2c[nH]c3c(C)c(OC)ccc23)c2ccc(F)cc2OC)cc(OCCO)c1 (single isomer, unassigned) [Compound 11A]
40

Using the record for COc1cc(NC(C(=O)c2c[nH]c3c(F)cc(C)cc23)c2ccc(F)cc2OC)cc(OCCO)c1 (single isomer, unassigned) [Compound 12B] , report its EC50.
77

====

Test system: uninfected Vero cells
Test: in vitro
Type: cell-based
Details: African green monkey
This listing pairs compounds with measured CC50.
Expressed in µM, but write only the number.

These recorded examples may help you get a feel for the data.
compound	value-kind	value
COc1cc(NC(C(=O)c2c[nH]c3c(C)c(Cl)ccc23)c2ccc(F)cc2OC)cc(OCCO)c1 (single isomer, unassigned)	CC50	13
COc1cc(NC(C(=O)c2c[nH]c3cc(Cl)ccc23)c2ccc(F)cc2OC)cc(OCCO)c1 (single isomer, unassigned)	CC50	18

What does the record list as CC50 for COc1cc(NC(C(=O)c2c[nH]c3c(F)c(F)ccc23)c2ccc(F)cc2OC)cc(OCCO)c1 (single isomer, unassigned) ?
11

====

Test system: Vero cells
Assay: in vitro
Format: cell-based
Conditions: African green monkey
value-kind: CC50 (µM)
Return type: number; implicit unit µM.

Solved cases (3 shown):
molecule	value
COc1cc(NC(C(=O)c2c[nH]c3c(C)c(OC)ccc23)c2ccc(F)cc2OC)cc(OCCO)c1 (single isomer, unassigned) [Compound 11A]	8.9
COc1cc(NC(C(=O)c2c[nH]c3cc(F)ccc23)c2ccc(F)cc2OC)cc(OCCO)c1 (single isomer, unassigned)	8.4
COc1cc(NC(C(=O)c2c[nH]c3c(F)cc(C)cc23)c2ccc(F)cc2OC)cc(OCCO)c1 (single isomer, unassigned) [Compound 12B]	5.5

Entry COc1cc(NC(C(=O)c2c[nH]c3c(C)cc(F)cc23)c2ccc(F)cc2OC)cc(OCCO)c1 (single isomer, unassigned) : reported CC50 = ?
5.5

Reported CC50 for COc1cc(NC(C(=O)c2c[nH]c3cc(F)c(F)cc23)c2ccc(F)cc2OC)cc(OCCO)c1 (single isomer, unassigned) [Compound 10B] : what is it?
6.9

Item under review: COc1cc(NC(C(=O)c2c[nH]c3cc(Cl)ccc23)c2ccc(F)cc2OC)cc(OCCO)c1 (single isomer, unassigned) . Reported CC50?
5.9

====

Tested on: DENV-2 16681 strain
Experiment: DENV-2 antiviral assay (eGFP-labelled virus in Vero cells)
Format: cell-based, Dengue virus
Conditions: DENV-2 16681 eGFP, MOI 0.5, 3 days
value-kind: EC50

Reference set, count: 8
compound	EC50
COc1cc(NC(C(=O)c2c[nH]c3cc(F)c(F)cc23)c2ccc(F)cc2OC)cc(OCCO)c1 (single isomer, unassigned) [Compound 10B]	2.7 nM
COc1cc(NC(C(=O)c2c[nH]c3c(C)c(F)ccc23)c2ccc(F)cc2OC)cc(OCCO)c1 (single isomer, unassigned) [Compound 2B]	2.2 nM
COc1cc(NC(C(=O)c2c[nH]c3c(C)c(Cl)ccc23)c2ccc(F)cc2OC)cc(OCCO)c1 (single isomer, unassigned) [Compound 3B]	180 nM
COc1cc(NC(C(=O)c2c[nH]c3c(F)cc(C)cc23)c2ccc(F)cc2OC)cc(OCCO)c1 (single isomer, unassigned) [Compound 12B]	5.1 nM
COc1cc(NC(C(=O)c2c[nH]c3c(Cl)c(OC)ccc23)c2ccc(F)cc2OC)cc(OCCO)c1 (single isomer, unassigned) [Compound 8A]	1 nM
COc1cc(NC(C(=O)c2c[nH]c3c(F)c(F)ccc23)c2ccc(F)cc2OC)cc(OCCO)c1 (single isomer, unassigned) [Compound 5A]	440 nM
COc1cc(NC(C(=O)c2c[nH]c3c(C)c(F)ccc23)c2ccc(F)cc2OC)cc(OCCO)c1 (single isomer, unassigned) [Compound 2A]	660 nM
COc1cc(NC(C(=O)c2c[nH]c3c(C)c(OC)ccc23)c2ccc(F)cc2OC)cc(OCCO)c1 (single isomer, unassigned) [Compound 11B]	410 nM

Let's switch to this compound now.
Look at this compound and give its reported EC50. COc1cc(NC(C(=O)c2c[nH]c3cc(OC)c(F)cc23)c2ccc(F)cc2OC)cc(OCCO)c1 (single isomer, unassigned) [Compound 7B]
540 nM

====

Tested on: DENV-2 16681 strain
Assay: DENV-2 antiviral assay (eGFP-labelled virus in Vero cells)
Type: cell-based, Dengue virus
Conditions: DENV-2 16681 eGFP, MOI 0.5, 3 days
value-kind: EC50

compound	EC50
COc1cc(NC(C(=O)c2c[nH]c3c(C)c(Cl)ccc23)c2ccc(F)cc2OC)cc(OCCO)c1 (single isomer, unassigned) [Compound 3A]	0.77 nM
COc1cc(NC(C(=O)c2c[nH]c3c(C)c(OC)ccc23)c2ccc(F)cc2OC)cc(OCCO)c1 (single isomer, unassigned) [Compound 11A]	0.81 nM

Look at this compound and give its reported EC50. COc1cc(NC(C(=O)c2c[nH]c3c(C)cc(F)cc23)c2ccc(F)cc2OC)cc(OCCO)c1 (single isomer, unassigned) [Compound 9B]
3.4 nM

Entry COc1cc(NC(C(=O)c2c[nH]c3cc(OC)c(C)cc23)c2ccc(F)cc2OC)cc(OCCO)c1 (single isomer, unassigned) [Compound 6A] : reported EC50 = ?
2.7 nM

EC50 for COc1cc(NC(C(=O)c2c[nH]c3c(Cl)c(OC)ccc23)c2ccc(F)cc2OC)cc(OCCO)c1 (single isomer, unassigned) [Compound 8B] ?
150 nM

Returns the measured EC50 for the input compound. Input: COc1cc(NC(C(=O)c2c[nH]c3cc(Cl)ccc23)c2ccc(F)cc2OC)cc(OCCO)c1 (single isomer, unassigned) [Compound 4A]
1.6 nM
